Target: T1, PARD3B_1, Q8TEW8
T1 sequence (Q8TEW8 196-299, limits assumed, looked up): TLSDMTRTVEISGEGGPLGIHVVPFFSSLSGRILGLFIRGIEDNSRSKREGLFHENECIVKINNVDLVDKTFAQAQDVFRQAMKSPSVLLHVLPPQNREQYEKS
Assay: holdup assay
Design: key: below the threshold = too weak to quantify, mostly under pKd 3.1 to 4
Conditions: plain residues with an end cap or a label only (N-terminal biotin on a linker: ado-ado)
test-readout: pKd

[[record]]
binder = "MLPANYVEAI [NEB, P20929]"
test_readout = "pKd"
measurement = "below the threshold"

[[record]]
binder = "GNDPDRGTSI [GRID2, O43424]"
test_readout = "pKd"
measurement = "below the threshold"

[[record]]
binder = "QQGLLPHSSC [TYRO3, Q06418]"
test_readout = "pKd"
measurement = "below the threshold"

[[record]]
binder = "LPPPESESKV [KCNJ9, Q92806]"
test_readout = "pKd"
measurement = "below the threshold"

[[record]]
binder = "PKSNSSKEYV [CLDN7, O95471]"
test_readout = "pKd"
measurement = "below the threshold"

[[record]]
binder = "YAEKRMLTEV [KCNA6, P17658]"
test_readout = "pKd"
measurement = "below the threshold"

[[record]]
binder = "NSTHNLKDYV [CLDN20, P56880]"
test_readout = "pKd"
measurement = "below the threshold"

[[record]]
binder = "SQDPKKPSRV [CBY2, Q8NA61]"
test_readout = "pKd"
measurement = "below the threshold"

[[record]]
binder = "TNSKQGETTV [FZD1, Q9UP38]"
test_readout = "pKd"
measurement = "below the threshold"

[[record]]
binder = "SAGADSETHC [SLCO1B1, Q9Y6L6]"
test_readout = "pKd"
measurement = "below the threshold"

[[record]]
binder = "DFKHTKSFII [JAM2, P57087]"
test_readout = "pKd"
measurement = 4.95

[[record]]
binder = "IQISELETNV [SLC1A7, O00341]"
test_readout = "pKd"
measurement = "below the threshold"

[[record]]
binder = "KSRPENGTVC [TMEM178B, H3BS89]"
test_readout = "pKd"
measurement = "below the threshold"

[[record]]
binder = "SGDGKTSVWI [GJC1, P36383]"
test_readout = "pKd"
measurement = 4.77

[[record]]
binder = "VYEVPVETKF [SLC26A3, P40879]"
test_readout = "pKd"
measurement = 4.19

[[record]]
binder = "HYPASPDSWV [CTNND2, Q9UQB3]"
test_readout = "pKd"
measurement = 3.52

[[record]]
binder = "VISSDDLTEL [CAPN6, Q9Y6Q1]"
test_readout = "pKd"
measurement = "below the threshold"

[[record]]
binder = "THHRKIHTRV [ZNF599, Q96NL3]"
test_readout = "pKd"
measurement = "below the threshold"

[[record]]
binder = "TKDKVQETQI [LRRC4, Q9HBW1]"
test_readout = "pKd"
measurement = 3.76

[[record]]
binder = "PSDSVGKDVF [EGLN1, Q9GZT9]"
test_readout = "pKd"
measurement = 3.5

[[record]]
binder = "SKQFDKNAYV [CLDN10, P78369]"
test_readout = "pKd"
measurement = 3.97

[[record]]
binder = "EPAKETTTNV [SLC2A3, P11169]"
test_readout = "pKd"
measurement = "below the threshold"

[[record]]
binder = "TFSRRPKTRV [CD226, Q15762]"
test_readout = "pKd"
measurement = "below the threshold"

